# Test system: RXF 393 renal
# assayRemarks: NCI tumour cell line growth inhibition, 48 h
Each record here notes measured TGI.

[
  {
    "compound": "O=C(O)c1nn(-c2ccccc2-c2n[nH]c(=O)[nH]c2=O)c(=O)[nH]c1=O",
    "limitSign": ">",
    "TGI, µM": 100
  },
  {
    "compound": "COc1ccc2c(c1)CCCN2c1c2ccccc2nc2ccccc12",
    "limitSign": "=",
    "TGI, µM": 0.786
  },
  {
    "compound": "CC1(C)OC2=C(CC1Br)C(=O)C(=O)c1ccccc12 (configuration not stated)",
    "limitSign": "=",
    "TGI, µM": 3.33
  },
  {
    "compound": "O=C1c2ccccc2C(=O)c2c1cc(S(=O)(=O)O)c(O)c2O",
    "limitSign": ">",
    "TGI, µM": 100
  },
  {
    "compound": "O=S(=O)(NC1=NCCN1C(=S)SN1CCn2c1nsc2=S)c1cccc(Cl)c1",
    "limitSign": "=",
    "TGI, µM": 21.6
  },
  {
    "compound": "CC/C=C\\C[C@@H](O)C/C=C1/C(=O)C=C[C@H]1C/C=C\\CCCC(=O)OC",
    "limitSign": "=",
    "TGI, µM": 3.55
  },
  {
    "compound": "NC1=NC(c2ccccc2)CC(c2cc(Cl)ccc2O)=N1 (configuration not stated)",
    "limitSign": "=",
    "TGI, µM": 32.9
  }
]

----------
Each record here notes measured TGI.
# Test system: SK-MEL-5 melanoma
# assayRemarks: NCI tumour cell line growth inhibition, 48 h

[
  {
    "molecule": "COc1cc2ncnc(Nc3cccc(Cl)c3)c2cc1OC",
    "target": "SK-MEL-5 melanoma",
    "limitSign": "=",
    "TGI (µM)": 17.4
  },
  {
    "molecule": "OC1(c2ccc(Cl)cc2)C(N2CCCC2)c2ccccc2C2=NCCN21 (stereo not drawn)",
    "target": "SK-MEL-5 melanoma",
    "limitSign": "=",
    "TGI (µM)": 28.4
  },
  {
    "molecule": "C[N+]1=C(/C=C/c2ccc(O)c3ncccc23)C(C)(C)c2ccccc21",
    "target": "SK-MEL-5 melanoma",
    "limitSign": "=",
    "TGI (µM)": 5.71
  },
  {
    "molecule": "COc1cc(/C=N\\N(C)C)cc(/C=N/N(C)C)c1O",
    "target": "SK-MEL-5 melanoma",
    "limitSign": ">",
    "TGI (µM)": 100
  },
  {
    "molecule": "O=c1cc(-c2ccccc2)oc2cc(OC/C(=N/O)c3ccccc3)ccc12",
    "target": "SK-MEL-5 melanoma",
    "limitSign": ">",
    "TGI (µM)": 50
  },
  {
    "molecule": "C/C(Cl)=N/OC(=O)Nc1ccc(S(N)(=O)=O)c(C)c1",
    "target": "SK-MEL-5 melanoma",
    "limitSign": "=",
    "TGI (µM)": 26.1
  },
  {
    "molecule": "CCOC(=O)CCCNC(=O)CCCCC(=O)N(C)C",
    "target": "SK-MEL-5 melanoma",
    "limitSign": ">",
    "TGI (µM)": 100
  },
  {
    "molecule": "COC(=O)Nc1nc2ccc(Oc3ccc(NC(=O)Nc4cc(C(F)(F)F)ccc4F)cc3)cc2s1",
    "target": "SK-MEL-5 melanoma",
    "limitSign": ">",
    "TGI (µM)": 25
  }
]
